# Subject of test: gallocin gene promoter (PgllA) in S. gallolyticus subsp. gallolyticus UCN34 Δgsp pTCVΩPgllA-gfp (receptor BlpH)
# Assay explanation: Gallocin induction reporter gene assay (PgllA-gfp)
# Assay type: cell-based, Streptococcus gallolyticus subsp. gallolyticus
# Experimental setup: reporter strain UCN34 Δgsp pTCVΩPgllA-gfp; maximum GFP fluorescence normalized with OD600; 37°C; triplicate, three trials, sigmoidal curve fit
pEC50: −log10 of the molar value. No end group written: not given here.
Readout type: pEC50

Sequence input	Result
DFLIVGPFDWLKKNHKPT [GSP-des-K19-A21]	< 6.00
LKKNHKPTKHA [GSP-des-D1-W10]	< 6.00
DFLIVGPFDWLKKNHKPTK [GSP-des-H20-A21]	< 6.00
DFLIVGPFDALKKNHKPTKHA [GSP W10A]	< 6.00
DFLIVGPFDWLKKNHKPTAHA [GSP K19A]	6.97
DFLIVGPFDWLKKNHKPTKH [GSP-des-A21]	< 6.00
